We begin with a simple list: items and their reported inhibition.
- MEASURED TARGET: Serine/threonine-protein kinase 4 (Homo sapiens) (UniProt Q13043);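 note: mean inhibition of MST1, reported as part of the GSK PKIS dataset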
- Sequence (Q13043 whole entry): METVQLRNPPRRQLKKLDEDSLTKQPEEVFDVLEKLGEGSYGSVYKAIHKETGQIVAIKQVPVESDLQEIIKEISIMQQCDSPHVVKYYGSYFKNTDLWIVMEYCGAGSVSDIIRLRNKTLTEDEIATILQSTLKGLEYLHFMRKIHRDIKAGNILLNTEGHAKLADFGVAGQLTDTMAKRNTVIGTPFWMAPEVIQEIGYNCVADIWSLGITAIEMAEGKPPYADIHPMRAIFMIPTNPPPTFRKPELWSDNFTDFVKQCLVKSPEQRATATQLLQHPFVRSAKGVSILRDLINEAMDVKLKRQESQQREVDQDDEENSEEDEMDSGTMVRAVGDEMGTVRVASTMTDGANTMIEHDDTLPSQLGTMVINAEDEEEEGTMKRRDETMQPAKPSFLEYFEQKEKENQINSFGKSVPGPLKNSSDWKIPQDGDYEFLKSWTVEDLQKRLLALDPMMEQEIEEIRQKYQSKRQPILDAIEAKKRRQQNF
- CONDITION INFO: at 0.1 µM

# CHEMICAL SMILES, UNIT TAG, inhibition
data = [
    ("CS(=O)(=O)Nc1ccc(-c2ccc3c(NC(=O)C4CC4)n[nH]c3c2)cc1", "%", 4.89),
    ("FC(F)(F)CNc1nccc(-c2cnn3ncccc23)n1", "%", 3.65),
    ("CS(=O)(=O)CCNCc1ccc(-c2ccc3ncnc(Nc4ccc(OCc5ccccc5)cc4)c3c2)o1", "%", 3.24),
    ("CCCNc1cccc(-n2ncc3c(N/N=C/c4ccncc4)ncnc32)c1", "%", 4.12),
    ("Fc1ccc(Nc2nccc(-c3c(-c4ccc(C(F)(F)F)cc4)nn4ncccc34)n2)cc1F", "%", 6.25),
    ("O=C(Nc1n[nH]c2nnc(-c3cccnc3)cc12)C1CC1", "%", -0.95),
    ("CNC(=O)c1cncc(/C=C/c2ccccc2C)c1", "%", 9.28),
    ("CC(C)c1ccc(-c2cc(-c3c[nH]nc3-c3ccccn3)ccn2)cc1", "%", 0.63),
    ("N#Cc1ccc2c(-c3ccnc(NC4CC4)n3)c(-c3ccc(F)cc3)nn2c1", "%", 0.26),
    ("COc1cc(Nc2ncc(-c3ccccc3)o2)cc(OC)c1", "%", 3.72),
    ("CN1CCC(n2cnc(-c3ccc(F)cc3)c2-c2ccnc(NCCO)n2)CC1", "%", 7.06),
    ("CCS(=O)(=O)c1ccc(OC)c(Nc2ncc(-c3cccc(C(C)=O)c3)o2)c1", "%", 7.14),
    ("O=C(O[C@H]1CN[C@H](C#Cc2cc3ncnc(Nc4ccc5c(ccn5Cc5cc(F)ccc5F)c4)c3s2)C1)N1CCOCC1", "%", 2.68),
    ("COc1c(C(N)=O)cc(-c2ccc(Cl)cc2)cc1-c1ccc(S(N)(=O)=O)cc1", "%", 2.89),
    ("Fc1cccc(COc2ccc(Nc3ncncc3C#Cc3ccccc3)cc2Cl)c1", "%", 6.89),
    ("COC(=O)Nc1nc2ccc(Oc3ccc(NC(=O)Nc4cc(C(F)(F)F)ccc4F)cc3)cc2s1", "%", -0.61),
    ("Cc1nnc(-c2cccc(-c3ccc(C(=O)NCC4CC4)cc3)c2)o1", "%", 8.49),
    ("COc1ccccc1-c1cc(/C=C2\\C(=O)Nc3ncc(Br)cc32)cc(Br)c1O", "%", 6.41),
]

====

The reader will find reported inhibition values listed item by item below.
- MEASURED TARGET: Homeodomain-interacting protein kinase 4 (Homo sapiens);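 note: reported as mean inhibition, part of the GSK PKIS dataset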
- CONDITION INFO: at 0.1 µM
ASSAY ENDPOINT: inhibition (%)

# CHEMICAL SMILES, UNIT TAG, NUMERIC RESULT
rows = [
    ("CCOc1ccc2c(-c3ccnc(Nc4cc(OC)cc(C(F)(F)F)c4)n3)cnn2n1", "%", 4.81),
    ("c1ccc(-c2n[nH]cc2-c2ccnc(-c3ccc(OCCn4ccnc4)cc3)c2)nc1", "%", -0.24),
    ("CS(=O)(=O)Nc1ccc(-c2ccc3c(NC(=O)C4CC4)n[nH]c3c2)cc1", "%", 0.27),
    ("Cc1cc(O)cc(C)c1/C=C/c1cncc(C(=O)OC(C)(C)C)c1", "%", 1.55),
    ("COc1cc(Nc2ncc(-c3ccccc3)o2)cc(OC)c1", "%", 2.58),
    ("COc1cc(N2CCN(C(C)C)CC2)ccc1Nc1nc(Nc2cccc3ncccc23)c2cc[nH]c2n1", "%", 1.11),
    ("Cc1c2ccc(N(C)c3ccnc(Nc4cccc(S(N)(=O)=O)c4)n3)cc2nn1C", "%", -0.24),
    ("CNC(=O)c1sc(-n2cnc3cc(OC)c(OC)cc32)cc1OCc1ccccc1C(F)(F)F", "%", 1.98),
    ("CN(C)CCNC(=O)Nc1ccc(N(C)c2ccnc(Nc3ccc(CS(C)(=O)=O)cc3)n2)cc1", "%", 0.19),
    ("c1cnn2ncc(-c3ccnc(NCCCN4CCOCC4)n3)c2c1", "%", -0.89),
    ("Cc1nnc(-c2cccc(-c3ccc(C(=O)NCC4CC4)cc3)c2)o1", "%", 2.08),
    ("COc1ccc(-c2nn3ncccc3c2-c2ccnc(Nc3ccc(F)c(F)c3)n2)cc1", "%", 1.49),
    ("OCCCNc1nccc(-c2c(-c3ccc(F)cc3)nn3cc(C(F)(F)F)ccc23)n1", "%", 3.13),
    ("CC(C)c1ccc(-c2cc(-c3c[nH]nc3-c3ccccn3)ccn2)cc1", "%", 0.13),
    ("CS(=O)(=O)CCNCc1ccoc1-c1ccc2ncnc(Nc3ccc(OCc4ccccc4)cc3)c2c1", "%", 0.57),
    ("NS(=O)(=O)c1ccc(N/N=C2\\C(=O)Nc3cccc(CCc4ccncc4)c32)cc1", "%", 0.72),
]
